- Tested on: TK-10
- Assay summary: Cytotoxicity against Homo sapiens (human) TK10 cells after 48 hr by SRB assay
- Format: functional
- Recorded conditions: TK-10, 48 h
Value type: GI50 (µM)
Numbers only, in µM.

In the examples that follow, each entry is paired with its recorded GI50.
{"Compound": "O=C1CCS/C(=N\\S(=O)(=O)c2ccc(N3N=C4c5ccccc5CC4C3c3cccs3)cc2)N1C(=O)c1ccccc1 (stereo not drawn)", "Value type": "GI50", "Uom": "µM", "Endpoint result": 24.5}
{"Compound": "NS(=O)(=O)c1ccc(N2N=C3c4ccccc4CC3C2c2cccs2)cc1 (stereo not drawn)", "Value type": "GI50", "Uom": "µM", "Endpoint result": 13.2}

Here is the next item to consider.
Q: Param item = NS(=O)(=O)c1ccc(-n2nc3c(c2-c2cccs2)Cc2ccccc2-3)cc1 ; retrieve measured GI50.
Ans: 12.2
